biological target: HLA-A*24:02; experiment: IEDB peptide-MHC binding, purified MHC/competitive/radioactivity; filed as Kd, often an IC50 or EC50 that approximates it; bounds were set here for any values at or beyond the usual limits of such assays; conditions: source organism: Lassa virus Josiah
pKd: −log10 of the molar value.
Quantity kind: pKd

(Q) Which value of pKd has been reported for EGKDTPGGY in the records?
(A) ≤ 4.11

* * *

target: HLA-B*15:42; assay: IEDB peptide-MHC binding, purified MHC/competitive/fluorescence; filed as Kd, often an IC50 or EC50 that approximates it; bounds were set here for any values at or beyond the usual limits of such assays; settings: source organism: Coxiella burnetii Dugway 5J108-111
pKd: −log10 of the molar value.
Quantity kind: pKd

(Q) Which pKd value is on record for MTFPVSLEY ?
(A) ≤ 5.30

* * *

target: HLA-B*40:01; experiment: IEDB peptide-MHC binding, purified MHC/competitive/radioactivity; filed as Kd, often an IC50 or EC50 that approximates it; bounds were set here for any values at or beyond the usual limits of such assays; conditions: source organism: Mammarenavirus brazilense
// values below are reported pKd
Note on pKd: it is the negative log10 of concentration, concentration in mol/L.

- Residue sequence: "GDEALRGFL"
  System tested: "HLA-B*40:01"
  Quantity kind: "pKd"
  Experimental value: 5.15

# ---- query sequence ----
(Q) Requested field: pKd. Item: ADMSKLISL
(A) 4.76

* * *

biological target: HLA-A*30:01; assay: IEDB peptide-MHC binding, purified MHC/competitive/radioactivity; filed as Kd, often an IC50 or EC50 that approximates it; bounds were set here for any values at or beyond the usual limits of such assays; conditions: source organism: Dengue virus 4 Philippines/H241/1956
Quantity kind: Kd (nM)
Record the value in nM, omitting the unit from your answer.

- Residue sequence: "GGSLVRCPLS"
  Kd (nM): 2430

Continue with the next sequence.
(Q) Can you share its Kd? I mean this sequence: RTEAKSALK
(A) 476

* * *

The following sequences are shown together with reported Kd values.
molecular target: HLA-A*33:01; assay: IEDB peptide-MHC binding, purified MHC/competitive/radioactivity; filed as Kd, often an IC50 or EC50 that approximates it; bounds were set here for any values at or beyond the usual limits of such assays; details: source organism: Dengue virus 2 Jamaica/1409/1983
Field: numeric (µM). Do not append units.

- Residue sequence: "TAMAFHLTTR"
  Unit info: "µM"
  Kd: 0.0184

// next item, Kd requested
(Q) Can you look up Kd on HLA-A*33:01 for IVSSVNMISR ?
(A) 0.0885

* * *

target: HLA-A*68:02; experiment: IEDB peptide-MHC binding, purified MHC/direct/fluorescence; filed as Kd, often an IC50 or EC50 that approximates it; bounds were set here for any values at or beyond the usual limits of such assays; settings: source organism: Marburg virus - Musoke, Kenya, 1980
Quantity kind: Kd

- Residue sequence: "NRWKSWFSY"
  System tested: "HLA-A*68:02"
  Kd: "≥ 20 µM"

(Q) For the record IFDDLQGSL , what value of Kd is listed for HLA-A*68:02?
(A) ≥ 20 µM

* * *

target: HLA-B*35:01; experiment: IEDB peptide-MHC binding, purified MHC/direct/fluorescence; filed as Kd, often an IC50 or EC50 that approximates it; bounds were set here for any values at or beyond the usual limits of such assays; settings: source organism: Rickettsia sibirica 246
Quantity kind: pKd
# pKd = -log10(concentration in molar units)

(Q) Recorded pKd for EFVSANLAM , please?
(A) 7.28
